target: HLA-B*5301 (human); assay: competition vs 125I probe peptide, purified HLA; conditions: remark: other sources report otherwise
pIC50: −log10 of the molar value.
Label Not satisfied if pIC50 falls below 6; label Satisfied in every other case.

-- ask Confirm if pIC50 reported for the binder KPYDGIPA [Her2/neu.921] is 6 or above.
-- reply Satisfied

-- ask Confirm if pIC50 reported for the binder YPNASLLI [CEA.102] is 6 or above.
-- reply Satisfied

-- ask Confirm if pIC50 reported for the binder LPQHLFGYSW [CEA.58] is 6 or above.
-- reply Satisfied

-- ask Confirm if pIC50 reported for the binder KPYDGIPI [Her2/neu.92118] is 6 or above.
-- reply Not satisfied

-- ask Confirm if pIC50 reported for the binder PPSPREGPLPI [Her2/neu.1149.I11] is 6 or above.
-- reply Satisfied

Provenance of the data: patent EP1903056A2
